Origin of measurements: paper PMC5540273

Tested on: ACVRL1
Settings: concentration: 1 μM,replicates: in singlicate; n = 1;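 also: KINOMEscan kinase panel screen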
For each entry below, report its %Inh value.
Supply the numeric figure in %, leaving out any unit text.

GET /value?item= Cc1n[nH]c2cc(Nc3ccnc(Nc4cccc(CN5CCOCC5)c4)n3)ccc12 [GW682569] &field=%Inh returns 17

GET /value?item= COC(=O)c1cccc(NC(=O)NC2CCN(c3ccnc(NCc4ccc(F)cc4)n3)CC2)c1 [GSK1379860] &field=%Inh returns 0

GET /value?item= `Cn1ccc2ncnc(Oc3ccc(NC(=O)Nc4ccnc(C(F)(F)F)c4)c(Cl)c3)c21` &field=%Inh returns 63

GET /value?item= `CN(c1cccc(CNc2nc(Nc3ccc4c(c3)CC(=O)N4)ncc2C(F)(F)F)c1)S(C)(=O)=O` &field=%Inh returns 0

GET /value?item= COC(=O)c1cccc(NC(=O)NC2CCN(c3ccnc(Nc4cc(OC)c(OC)c(OC)c4)n3)C2)c1 (stereo not drawn) [GSK1379767] &field=%Inh returns 0

GET /value?item= Cc1ccn2nc(-c3ccc(F)cc3)c(-c3ccncc3)c2c1.Cl [GW457859] &field=%Inh returns 0

GET /value?item= `C[C@@H]1CCN(C(=O)N2CCCC2)C[C@@H]1N(C)c1ncnc2[nH]ccc12` &field=%Inh returns 0

GET /value?item= CS(=O)c1ccc(-c2coc3ccc(-c4n[nH]c(=O)o4)cc23)cc1 (stereo not drawn) &field=%Inh returns 0

GET /value?item= O=c1[nH]cc(-c2ccc(O)cc2)c2sc(-c3ccncc3)cc12 [GSK1033723] &field=%Inh returns 0

GET /value?item= O=C(Nc1n[nH]c2cc(-c3ccco3)ccc12)C1CC1 [SB-737447] &field=%Inh returns 0

GET /value?item= Cc1cccc2c(-c3ccncc3)c(-c3ccc(F)cc3)nn12.Cl [GW461487] &field=%Inh returns 0

GET /value?item= `C[C@@H]1CNc2c(sc3ccc4nc(-c5ccncc5)ccc4c23)C(=O)N1` &field=%Inh returns 10

GET /value?item= COc1cc2nccc(Nc3ccc(Oc4ccccc4)cc3)c2cc1OC.Cl [GI261656] &field=%Inh returns 0

GET /value?item= CC(C)S(=O)(=O)N1CCN(Cc2ccc3c(c2)nc(NC(=O)c2ccsc2)n3C[C@H](O)c2ccccc2)CC1 [GW635815] &field=%Inh returns 0

GET /value?item= FC(F)(F)c1cc(Br)cc(Nc2nccc(-c3cnn4ncccc34)n2)c1 [GW810578] &field=%Inh returns 25

GET /value?item= COc1ccc(Nc2nccc(N3CCC(NC(=O)c4cccc(C#N)c4)C3)n2)cc1 (stereo not drawn) [GSK1379730] &field=%Inh returns 0

GET /value?item= CCNCC(Cc1ccccc1)NC(=O)c1cc(Br)c(-c2ccnc3[nH]ccc23)s1.Cl.Cl (stereo not drawn) [GSK1383280] &field=%Inh returns 0

GET /value?item= `Cn1ccc2ncnc(Oc3ccc(NC(=O)Nc4cccc(C(F)(F)F)c4)c(Cl)c3)c21` &field=%Inh returns 0

----------
Test system: PRKD1
Details: concentration: 1 μM,replicates: in singlicate; n = 1
Output Criterion met for records whose %Inh is lower than 2%, Criterion not met for records at or above 2%.

Query string: Just wondering, is %Inh of `Cn1ccc2ncnc(Oc3ccc(NC(=O)Nc4cnn(C(C)(C)C)c4)c(Cl)c3)c21` below 2%?
Result string: Criterion met

Query string: Just wondering, is %Inh of `OCCn1cc(-c2cnc3nnn(Cc4ccc5ncccc5c4)c3n2)cn1` below 2%?
Result string: Criterion not met

Query string: Just wondering, is %Inh of `NC(=O)c1ccc(-c2cc3ncnc(SCC(=O)O)c3s2)cc1` below 2%?
Result string: Criterion met

Query string: Just wondering, is %Inh of CCNCC(Cc1ccccc1)NC(=O)c1cc(Br)c(-c2ccnc3[nH]ccc23)s1.Cl.Cl (stereo not shown) below 2%?
Result string: Criterion not met

Query string: Just wondering, is %Inh of `Cc1ccc(CC(=O)N2CCc3cc(-c4cn(C)c5ncnc(N)c45)ccc32)cc1` below 2%?
Result string: Criterion met

Query string: Just wondering, is %Inh of `CCn1c(-c2nonc2N)nc2cncc(Br)c21` below 2%?
Result string: Criterion met

Query string: Just wondering, is %Inh of `O=C(Nc1ccccc1)c1cccc(Oc2ccc3nccn3n2)c1` below 2%?
Result string: Criterion not met

Query string: Just wondering, is %Inh of `O=C(Nc1ccc(Oc2ccc3nc(NC(=O)C4CC4)cn3n2)c(F)c1)c1cccn(-c2ccccc2)c1=O` below 2%?
Result string: Criterion met

Query string: Just wondering, is %Inh of `CS(=O)(=O)c1cccc(CNc2nc(Nc3ccc4c(c3)[C@@H]3C[C@@H]4CNC3=O)ncc2C(F)(F)F)c1` below 2%?
Result string: Criterion not met

Query string: Just wondering, is %Inh of `CNC(=O)c1ccccc1Nc1nc(Nc2cccc(CS(C)(=O)=O)c2)ncc1C.O=CO` below 2%?
Result string: Criterion met

Query string: Just wondering, is %Inh of `CN(c1ccccc1CNc1nc(Nc2ccc3c(c2)CC(=O)N3)ncc1C(F)(F)F)S(C)(=O)=O` below 2%?
Result string: Criterion not met

Query string: Just wondering, is %Inh of `CN(c1ccc2c(c1)nc(NCc1ccc(F)cc1)n2C)c1ccnc(Nc2ccc(CS(C)(=O)=O)cc2)n1.Cl` below 2%?
Result string: Criterion met

Query string: Just wondering, is %Inh of `COc1cc2nccc(Nc3ccc(Oc4ccccc4)cc3)c2cc1OC.Cl` below 2%?
Result string: Criterion met

Query string: Just wondering, is %Inh of `Cn1ccc2ncnc(Oc3ccc(NC(=O)Nc4cncc(C(F)(F)F)c4)c(Cl)c3)c21` below 2%?
Result string: Criterion met

Query string: Just wondering, is %Inh of COc1cccc(CNC(=O)NC2CCN(c3ccnc(Nc4cc(OC)c(OC)c(OC)c4)n3)C2)c1 (stereo not shown) below 2%?
Result string: Criterion met

Query string: Just wondering, is %Inh of `CS(=O)(=O)Nc1ccc(-c2ccnc3[nH]ccc23)cc1` below 2%?
Result string: Criterion met

Query string: Just wondering, is %Inh of `Cc1ccc(Nc2ccnc(Nc3ccc4c(c3)CS(=O)(=O)C4)n2)cc1O.Cl` below 2%?
Result string: Criterion not met

Query string: Just wondering, is %Inh of `C[C@@H]1CNc2c(sc3ccc4nc(-c5ccc(O)cc5)ccc4c23)C(=O)N1` below 2%?
Result string: Criterion not met

Query string: Just wondering, is %Inh of `CN1CCN(CCCNc2nccc(-c3c(-c4ccc(F)cc4)nn4cc(C(N)=O)ccc34)n2)CC1` below 2%?
Result string: Criterion not met

Query string: Just wondering, is %Inh of `NC(=O)Nc1sc(-c2ccc(F)cc2)cc1C(N)=O` below 2%?
Result string: Criterion met

Query string: Just wondering, is %Inh of `O=C1NCCc2[nH]c(-c3ccncc3)cc21` below 2%?
Result string: Criterion not met

Query string: Just wondering, is %Inh of `CCN1CCN(CCCC(=O)Nc2n[nH]c3nc(-c4ccc(O)cc4)c(Br)cc23)CC1` below 2%?
Result string: Criterion met

Query string: Just wondering, is %Inh of `Cn1cc(-c2cccc3c(N)c(C(N)=O)nnc23)cn1` below 2%?
Result string: Criterion met

Query string: Just wondering, is %Inh of `Cc1cccc(-c2nc(Nc3ccncc3)c3sccc3n2)n1` below 2%?
Result string: Criterion not met

Query string: Just wondering, is %Inh of COc1ccc(Nc2nccc(N3CCC(NC(=O)c4cccc(C#N)c4)C3)n2)cc1 (stereo not shown) below 2%?
Result string: Criterion met

Query string: Just wondering, is %Inh of `CCn1c(-c2nonc2N)nc2cncc(CNC3CCNCC3)c21.Cl` below 2%?
Result string: Criterion met

Query string: Just wondering, is %Inh of CC(C(=O)NC1CCN(c2ccnc(Nc3ccc(F)cc3)n2)C1)c1ccc(Cl)cc1 (stereo not shown) below 2%?
Result string: Criterion met

Query string: Just wondering, is %Inh of `Cc1ccn2nc(-c3ccc(F)cc3)c(-c3ccncc3)c2c1.Cl` below 2%?
Result string: Criterion not met

Query string: Just wondering, is %Inh of `O=C(Nc1cccc(C(F)(F)F)c1)c1cccc(Oc2ccc3nccn3n2)c1` below 2%?
Result string: Criterion met

Query string: Just wondering, is %Inh of `CC(=O)Nc1nc2cnc(Nc3cc(NC(=O)c4cccc(CC(C)(C)C#N)c4)ccc3C)nc2s1` below 2%?
Result string: Criterion met

Query string: Just wondering, is %Inh of `C[C@@H](Oc1cc(-n2cnc3ccc(-c4ccncc4)cc32)sc1C(N)=O)c1ccccc1Cl` below 2%?
Result string: Criterion met

Query string: Just wondering, is %Inh of `O=C(NCC1CC1)c1ccc(-c2cc(C(=O)NC3CC3)ccc2F)cc1` below 2%?
Result string: Criterion met

Query string: Just wondering, is %Inh of `Cn1ccc2ncnc(Oc3ccc(NC(=O)Nc4cccc(C(F)(F)F)c4)c(Cl)c3)c21` below 2%?
Result string: Criterion met

Query string: Just wondering, is %Inh of `COC(=O)Nc1nc2cc(Oc3ccc(NC(=O)Nc4cc(C(F)(F)F)ccc4Cl)cc3)ccc2[nH]1.Cl` below 2%?
Result string: Criterion met
